Biological target: human MC4R receptor (human, UniProt P32245 1-332)
Sequence (P32245 whole entry): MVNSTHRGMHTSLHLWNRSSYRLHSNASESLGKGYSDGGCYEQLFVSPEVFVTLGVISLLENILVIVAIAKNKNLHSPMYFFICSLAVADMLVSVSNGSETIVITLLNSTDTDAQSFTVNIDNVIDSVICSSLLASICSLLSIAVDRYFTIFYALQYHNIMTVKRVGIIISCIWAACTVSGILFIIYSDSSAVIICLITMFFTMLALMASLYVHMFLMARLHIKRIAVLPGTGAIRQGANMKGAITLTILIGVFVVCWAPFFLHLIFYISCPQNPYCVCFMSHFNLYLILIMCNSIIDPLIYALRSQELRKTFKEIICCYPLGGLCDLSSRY
Assay: cell-based or functional assay
Starred links: 1 amine or outer side, 2 acyl side, 3 side chain; linkers in the order of their positions; H or OH if unused. Positions of bridges follow the written chain, without caps; N, C: chain ends. Non-standard residues stand in square brackets, D forms with d. Primed or numbered codes have the meaning given here. dPhe(4-NHAc) = 4-acetamido-D-phenylalanine, CC(=O)Nc1ccc(C[C@@H](N[*:1])C(=O)[*:2])cc1; dTyr(4-OMe)″ = O-methyl-D-tyrosine, COc1ccc(C[C@@H](N[*:1])C(=O)[*:2])cc1; dPhe(4-Br) = N[C@H](Cc1ccc(Br)cc1)C(=O)O; NMeR = CN[C@@H](CCCNC(=N)N)C(=O)O; dTic = O=C(O)[C@H]1Cc2ccccc2CN1; Nle = CCCC[C@H](N)C(=O)O
Please go through the items and note down their MC4R selectivity vs MC1R.
Quick one: just the number, no unit, thanks!

Query: Look at this binder and give its reported MC4R selectivity vs MC1R. Ac-RC[dA]R[dF][dR][dW]C-NH2 (disulfide 2-8; SMILES CC(=O)N[C@@H](CCCNC(=N)N)C(=O)N[C@H]1CSSC[C@@H](C(N)=O)NC(=O)[C@@H](Cc2c[nH]c3ccccc23)NC(=O)[C@@H](CCCNC(=N)N)NC(=O)[C@@H](Cc2ccccc2)NC(=O)[C@H](CCCNC(=N)N)NC(=O)[C@@H](C)NC1=O) [CTX-1283]
Response: 0.03

Query: Look at this binder and give its reported MC4R selectivity vs MC1R. Ac-R[Nle]CH[dPhe(4-Br)]R[dW]C-NH2 (disulfide 3-8; SMILES CCCC[C@H](NC(=O)[C@H](CCCNC(=N)N)NC(C)=O)C(=O)N[C@H]1CSSC[C@@H](C(N)=O)NC(=O)[C@@H](Cc2c[nH]c3ccccc23)NC(=O)[C@H](CCCNC(=N)N)NC(=O)[C@@H](Cc2ccc(Br)cc2)NC(=O)[C@H](Cc2c[nH]cn2)NC1=O) [CTX-1231]
Response: 0.19

Query: Look at this binder and give its reported MC4R selectivity vs MC1R. Ac-RC[dA]R[dPhe(4-Br)]R[dTic]C-NH2 (disulfide 2-8) [CTX-1256]
Response: 0.003

Query: Look at this binder and give its reported MC4R selectivity vs MC1R. Ac-R[Nle]CR[dTyr(4-OMe)″]R[dW]C-NH2 (disulfide 3-8; SMILES CCCC[C@H](NC(=O)[C@H](CCCNC(=N)N)NC(C)=O)C(=O)N[C@H]1CSSC[C@@H](C(N)=O)NC(=O)[C@@H](Cc2c[nH]c3ccccc23)NC(=O)[C@H](CCCNC(=N)N)NC(=O)[C@@H](Cc2ccc(OC)cc2)NC(=O)[C@H](CCCNC(=N)N)NC1=O) [CTX-1615]
Response: 0.26

Query: Look at this binder and give its reported MC4R selectivity vs MC1R. Ac-RC[dA]R[dPhe(4-Br)][dR][dW]C-NH2 (disulfide 2-8) [CTX-1252]
Response: 0.04

Query: Look at this binder and give its reported MC4R selectivity vs MC1R. Ac-RC[dA]R[dPhe(4-NHAc)]R[dW]C-NH2 (disulfide 2-8) [CTX-1245]
Response: 0.08

Query: Look at this binder and give its reported MC4R selectivity vs MC1R. Ac-CGR[dPhe(4-Br)]RFC-NH2 (disulfide 1-7) [CTX-1640]
Response: 3.72

Query: Look at this binder and give its reported MC4R selectivity vs MC1R. Ac-RC[dA][NMeR][dPhe(4-Br)]R[dW]C-NH2 (disulfide 2-8; SMILES CC(=O)N[C@@H](CCCNC(=N)N)C(=O)N[C@H]1CSSC[C@@H](C(N)=O)NC(=O)[C@@H](Cc2c[nH]c3ccccc23)NC(=O)[C@H](CCCNC(=N)N)NC(=O)[C@@H](Cc2ccc(Br)cc2)NC(=O)[C@H](CCCNC(=N)N)N(C)C(=O)[C@@H](C)NC1=O) [CTX-1248]
Response: 1.31
